# System name: C222N GlTIM (Giardia intestinalis, UniProt P36186, C222N)
# Sequence (P36186 whole entry C222N): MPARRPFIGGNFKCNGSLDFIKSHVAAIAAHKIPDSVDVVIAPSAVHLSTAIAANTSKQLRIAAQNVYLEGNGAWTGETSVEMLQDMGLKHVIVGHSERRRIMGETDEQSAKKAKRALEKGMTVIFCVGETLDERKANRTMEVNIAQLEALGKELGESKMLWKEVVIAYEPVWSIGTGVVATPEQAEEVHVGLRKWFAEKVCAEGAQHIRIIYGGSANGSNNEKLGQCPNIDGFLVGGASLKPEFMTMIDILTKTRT
# Test: Competitive inhibition of TIM activity by 2-PG (global fit)
# Condition notes: 2-PG vs C222N, competitive
Property name: pKi
The scale used: pKi is minus the common logarithm of the concentration in molar units.

Prompt line: Tell me pKi reported for O=C(O)COP(=O)(O)O [2-PG, 2-phosphoglycolate]
Response line: 3.25

* * *

# System name: WT GlTIM (Giardia intestinalis, UniProt P36186)
# Sequence (P36186 whole entry): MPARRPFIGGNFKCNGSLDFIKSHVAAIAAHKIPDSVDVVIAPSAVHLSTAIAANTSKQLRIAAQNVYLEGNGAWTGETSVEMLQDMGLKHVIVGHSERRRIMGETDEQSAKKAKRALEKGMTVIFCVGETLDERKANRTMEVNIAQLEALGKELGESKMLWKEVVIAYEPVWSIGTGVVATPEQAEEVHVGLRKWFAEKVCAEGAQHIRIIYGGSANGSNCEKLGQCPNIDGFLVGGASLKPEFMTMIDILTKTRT
Property name: Ki (µM)
Value expressed in µM; do not type the unit.

Prompt line: Under WT GlTIM (Giardia intestinalis, UniProt P36186): report Ki of O=C(O)COP(=O)(O)O [2-PG, 2-phosphoglycolate] .
Response line: 87

* * *

# System name: C222F GlTIM (Giardia intestinalis, UniProt P36186, C222F)
# Sequence (P36186 whole entry C222F): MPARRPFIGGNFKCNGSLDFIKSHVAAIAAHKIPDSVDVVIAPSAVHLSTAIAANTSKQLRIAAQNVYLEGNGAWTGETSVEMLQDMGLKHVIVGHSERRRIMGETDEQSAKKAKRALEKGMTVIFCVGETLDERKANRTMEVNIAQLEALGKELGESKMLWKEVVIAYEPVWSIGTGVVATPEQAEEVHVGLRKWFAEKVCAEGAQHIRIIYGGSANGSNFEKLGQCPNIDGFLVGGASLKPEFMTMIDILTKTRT
# Test: Competitive inhibition of TIM activity by 2-PG (global fit)
# Condition notes: 2-PG vs C222F
Property name: pKi
Scale for pKi: -log10 of concentration given in mol/L; no unit attached.

Prompt line: Note pKi for the molecule shown: O=C(O)COP(=O)(O)O [2-PG, 2-phosphoglycolate]
Response line: 2.14

* * *

# System name: C222V GlTIM (Giardia intestinalis, UniProt P36186, C222V)
# Sequence (P36186 whole entry C222V): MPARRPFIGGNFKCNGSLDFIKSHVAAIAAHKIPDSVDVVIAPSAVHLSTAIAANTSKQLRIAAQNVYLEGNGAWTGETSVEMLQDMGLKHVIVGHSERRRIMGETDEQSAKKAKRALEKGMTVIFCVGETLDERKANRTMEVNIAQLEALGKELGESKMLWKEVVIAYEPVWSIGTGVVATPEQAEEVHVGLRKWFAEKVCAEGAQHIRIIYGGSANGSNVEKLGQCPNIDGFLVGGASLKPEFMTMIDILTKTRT
# Test: Competitive inhibition of TIM activity by 2-PG (global fit)
# Condition notes: 2-PG vs C222V, competitive
Property name: Ki (µM)
Give the quantity in µM, number only.

Prompt line: Identify measured Ki obtained with C222V GlTIM (Giardia intestinalis, UniProt P36186, C222V) for O=C(O)COP(=O)(O)O [2-PG, 2-phosphoglycolate] .
Response line: 98
